- Tested on: SW-620 colon
- Test: NCI-60 one-dose screen, 48 h (100 = growth as untreated, 0 = no growth, -100 = all killed)
- Test Settings: 10 µM
- Description: Growth inhibition of the SW-620 human tumor cell line is measured as a screen for anti-cancer activity. Cells are grown in 96 well plates and exposed to the test compound for 48 hours. Compounds are tested at a single concentration, which is 10^-5 M for most compounds. The reported endpoint is percent growth (GI% or GIPRCNT), where numbers from 0 - 100% represent growth inhibition, and numbers from -100% - 0 represent cell death. For example, a value of 40 represents 60% growth inhibition. […]
The panel holds about 83,000 compounds, 20% with a hit somewhere; the sample as a whole holds those more often.
Simple rule here: growth less than 50% is Met, otherwise Not met.

# Molecule, Label Value
rows = [
    ("CCOC(=O)N/N=C/c1ccc(OC)c(OC)c1", "Not met"),
    ("Cc1nn(-c2ccc(-c3ccc(OC(F)(F)F)cc3)cc2)c2nc(Cc3ccccc3)nc(N)c12", "Not met"),
    ("Cc1ccc(NC(=S)NNC(=S)Nc2ccc(C)cc2)cc1", "Met"),
]

Please determine if `COc1ccc(/C(C#N)=C/c2ccccc2OC)cc1` is below 50% in terms of growth.
Met

Same question, `NC(=O)c1cccc(-n2ccc3cc(NC(=O)Nc4ccc(Cl)c(C(F)(F)F)c4)ccc32)n1` this time
Not met

Same question, `Nc1ccc(CC[C@H]2CCC/C=C/[C@@H]3C[C@H](O)C[C@H]3[C@H](O)/C=C/C(=O)O2)cc1` this time
Met

Same question, COc1ccc(/C(=N\N)C(=O)c2ccccc2)cc1 (tested in a mixture with another compound) this time
Not met

Same question, `CSc1nc(S(C)(=O)=O)nc2[nH]c(=O)[nH]c12` this time
Not met
